concentration at 1 h values, listed per item
Assay Explanation: blood and urine contents after intramuscular administration in rabbits
Format: in vivo, rabbits "Nieuw Zeelander"
Condition Details: rabbit, serum, im; after 1 hr, intramuscular 50 mg/kg; read-out: Serumlevel
Only the number, expressed in µg/mL, is required.

Compound	concentration at 1 h, µg/mL
CC(=O)OCC1=C(C(=O)O)N2C(=O)[C@@H](NC(=O)Cc3nc(CC(=O)O)no3)[C@H]2SC1 [Example 35]	56

With those in mind, consider the next compound.
Would you kindly share the measured concentration at 1 h for Cc1noc(CC(=O)N[C@@H]2C(=O)N3C(C(=O)O)=C(CSc4nnnn4C)CS[C@H]23)n1 [Compound G] ? 49

====

MIC values, listed per item
Test system: Staph.aureus A 2000
Assay Explanation: agar serial dilution test
Assay type: cell-based, Staphylococcus aureus
Condition Details: Staphylococcus aureus, A2000, 24 h, agar serial dilution, 24 hours, 37° C.; read-out: minimal inhibitory concentration (MIC)
Only the number, expressed in µg/mL, is required.

Below, 3 molecules whose answers are already recorded.
Molecule	Subject Of Test	MIC (µg/mL)
CC(=O)OCC1=C(C(=O)O)N2C(=O)[C@@H](NC(=O)Cc3noc(C)n3)[C@H]2SC1 [Example 11D]	Staph.aureus A 2000	3
CCc1nc(CC(=O)N[C@@H]2C(=O)N3C(C(=O)O)=C(CSc4nnc(C)s4)CS[C@H]23)no1 [41 A]	Staph.aureus A 2000	0.5
CCc1noc(CC(=O)N[C@@H]2C(=O)N3[C@@H]2SC(C)(C)[C@@H]3C(=O)O)n1 [Example 11G]	Staph.aureus A 2000	1.5

With those in mind, consider the next molecule.
Would you kindly share the measured MIC for CC(=O)OCC1=C(C(=O)O)N2C(=O)[C@@H](NC(=O)C(c3ccccc3)c3nc(C)no3)[C@H]2SC1 (stereo partly shown) [Compound B] ? 1.5

====

concentration at 0.5 h values, listed per item
Assay Explanation: blood and urine contents after intramuscular administration in rabbits
Format: in vivo, rabbits "Nieuw Zeelander"
Condition Details: rabbit, serum, im; after 1/2 hr, intramuscular 50 mg/kg; read-out: Serumlevel
Only the number, expressed in µg/mL, is required.

Molecule	Property Label	Result Value
Cc1noc(CC(=O)N[C@@H]2C(=O)N3C(C(=O)O)=C(CSc4nnnn4C)CS[C@H]23)n1 [Compound G]	concentration at 0.5 h	137

With those in mind, consider the next molecule.
Would you kindly share the measured concentration at 0.5 h for CC(=O)OCC1=C(C(=O)O)N2C(=O)[C@@H](NC(=O)Cc3nc(CC(=O)O)no3)[C@H]2SC1 [Example 35] ? 93.7

====

MIC values, listed per item
System: Strep.haem A 1088
Assay Explanation: agar serial dilution test
Format: cell-based, Streptococcus haemolyticus
Condition Details: Streptococcus, A1088, 24 hours, 37° C., read-out: minimal inhibitory concentration (MIC)
Field note: include the unit after the figure.

Below, 3 compounds whose answers are already recorded.
CCc1nc(CC(=O)N[C@@H]2C(=O)N3C(C(=O)O)=C(CSc4nnc(C)s4)CS[C@H]23)no1 0.06 µg/mL
Cc1nc(CC(=O)N[C@@H]2C(=O)N3C(C(=O)O)=C(CSc4nnnn4C)CS[C@H]23)no1 0.5 µg/mL
Cn1nnnc1SCC1=C(C(=O)O)N2C(=O)[C@@H](NC(=O)Cc3nc(CC(=O)O)no3)[C@H]2SC1 3 µg/mL

With those in mind, consider the next compound.
Would you kindly share the measured MIC for `Cc1noc(CC(=O)N[C@@H]2C(=O)N3C(C(=O)O)=C(CSc4nnnn4C)CS[C@H]23)n1` ? 0.25 µg/mL

====

Assay Explanation: blood and urine contents after intramuscular administration in rabbits
Assay type: in vivo, rabbits "Nieuw Zeelander"
Condition Details: rabbit, serum, im; after 2 hr, intramuscular 50 mg/kg; read-out: Serumlevel
Property Label: concentration at 2 h (ng/mL)
Only the number, expressed in ng/mL, is required.

CC(=O)OCC1=C(C(=O)O)N2C(=O)[C@@H](NC(=O)Cc3nc(CC(=O)O)no3)[C@H]2SC1 15400

Would you kindly share the measured concentration at 2 h for `Cc1noc(CC(=O)N[C@@H]2C(=O)N3C(C(=O)O)=C(CSc4nnnn4C)CS[C@H]23)n1` ? 25000

====

System: Staph.aureus A 2000
Assay Explanation: agar serial dilution test
Format: cell-based, Staphylococcus aureus
Condition Details: Staphylococcus aureus, A2000, 24 h, agar serial dilution, 24 hours, 37° C.; read-out: minimal inhibitory concentration (MIC)
Binary label based on MIC with cut-off 2 µg/mL: below gives true, not below gives false.

Compound	Class Name
COCc1noc(CC(=O)N[C@@H]2C(=O)N3C(C(=O)O)=C(COC(C)=O)CS[C@H]23)n1	true

Does the reported MIC of the following compound sit strictly below 2 µg/mL? Cc1nnc(SCC2=C(C(=O)O)N3C(=O)[C@@H](NC(=O)Cn4cnnn4)[C@H]3SC2)s1 [Cephazolin, reference compound] true

Does the reported MIC of the following compound sit strictly below 2 µg/mL? Cc1noc(CC(=O)N[C@@H]2C(=O)N3[C@@H]2SC(C)(C)[C@@H]3C(=O)O)n1 [Example 11B] false

Does the reported MIC of the following compound sit strictly below 2 µg/mL? COC(=O)C(C(=O)N[C@@H]1C(=O)N2C(C(=O)O)=C(COC(C)=O)CS[C@H]12)c1nc(C)no1 (stereo partly shown) false

Does the reported MIC of the following compound sit strictly below 2 µg/mL? `CC1=C(C(=O)O)N2C(=O)[C@@H](NC(=O)Cc3nc(Cc4ccccc4)no3)[C@H]2SC1` false

Does the reported MIC of the following compound sit strictly below 2 µg/mL? Cc1nc(CC(=O)N[C@@H]2C(=O)N3C(C(=O)O)=C(CN=[N+]=[N-])C[S+]([O-])[C@H]23)no1 (stereo partly shown) false

Does the reported MIC of the following compound sit strictly below 2 µg/mL? `CC(=O)OCC1=C(C(=O)O)N2C(=O)[C@@H](NC(=O)Cc3nc(C)no3)[C@H]2SC1` true

====

Assay Explanation: pKa determined in water
Type: physicochemical
Property Label: pKa
In your answer, state the number alone without any accompanying words.

Would you kindly share the measured pKa for `Cc1noc(CC(=O)O)n1` ? 3.64

====

System: Pseud.aerug. H 10
Assay Explanation: agar serial dilution test
Assay type: cell-based
Condition Details: agar serial dilution, 24 hours, 37° C.; read-out: minimal inhibitory concentration (MIC)
MIC values, listed per item

Below, 5 compounds whose answers are already recorded.
Compound	Result Value
Cc1nc(CC(=O)N[C@@H]2C(=O)N3C(C(=O)O)=C(CN=[N+]=[N-])CS[C@H]23)no1	> 100 mg/L
CC1=C(C(=O)O)N2C(=O)[C@@H](NC(=O)Cc3nc(-c4c(Cl)cccc4Cl)no3)[C@H]2SC1 [Example 11E]	> 100 mg/L
Cc1nc(CC(=O)N[C@@H]2C(=O)N3C(C(=O)O)=C(CN=[N+]=[N-])C[S+]([O-])[C@H]23)no1 (some centres unmarked)	> 100 mg/L
Cc1noc(CC(=O)N[C@@H]2C(=O)N3C(C(=O)O)=C(CSc4nnnn4C)CS[C@H]23)n1	100 mg/L
Cc1noc(CC(=O)N[C@@H]2C(=O)N3[C@@H]2SC(C)(C)[C@@H]3C(=O)O)n1 [Example 11B]	> 100 mg/L

Hi! What's the reported MIC for CCc1noc(C(C)C(=O)N[C@@H]2C(=O)N3C(C(=O)O)=C(COC(C)=O)CS[C@H]23)n1 (mixture of isomers) [Example 11K] on Pseud.aerug. H 10? > 100 mg/L

Hi! What's the reported MIC for CC1(C)S[C@@H]2[C@H](NC(=O)[C@H](N)c3ccccc3)C(=O)N2[C@H]1C(=O)O [Ampicillin, reference compound] on Pseud.aerug. H 10? 125 mg/L

Hi! What's the reported MIC for CC1(C)S[C@@H]2[C@H](NC(=O)Cc3nc(-c4c(Cl)cccc4Cl)no3)C(=O)N2[C@H]1C(=O)O [Example 11A] on Pseud.aerug. H 10? > 100 mg/L

Hi! What's the reported MIC for CC(=O)OCC1=C(C(=O)O)N2C(=O)[C@@H](NC(=O)C(c3ccccc3)c3nc(C)no3)[C@H]2SC1 (some centres unmarked) on Pseud.aerug. H 10? > 100 mg/L

Hi! What's the reported MIC for `C=CCNC(=O)Cc1nc(CC(=O)N[C@@H]2C(=O)N3C(C(=O)O)=C(COC(C)=O)CS[C@H]23)no1` on Pseud.aerug. H 10? > 100 mg/L

Hi! What's the reported MIC for `Cn1nnnc1SCC1=C(C(=O)O)N2C(=O)[C@@H](NC(=O)Cc3nc(CC(=O)O)no3)[C@H]2SC1` on Pseud.aerug. H 10? 100 mg/L

Hi! What's the reported MIC for `CC1=C(C(=O)O)N2C(=O)[C@@H](NC(=O)Cc3nc(Cc4ccccc4)no3)[C@H]2SC1` on Pseud.aerug. H 10? > 100 mg/L

Hi! What's the reported MIC for `Cc1nc(CC(=O)N[C@@H]2C(=O)N3[C@@H]2SC(C)(C)[C@@H]3C(=O)O)no1` on Pseud.aerug. H 10? > 100 mg/L

Hi! What's the reported MIC for Cc1noc(C(C(=O)N[C@@H]2C(=O)N3[C@@H]2SC(C)(C)[C@@H]3C(=O)O)c2ccccc2)n1 (mixture of isomers) on Pseud.aerug. H 10? > 100 mg/L
